biological target: T1, complement component 4 (C4) (UniProt P0C0L4 20-675; P0C0L4 680-1446; P0C0L4 1454-1744, limits assumed); assay: SPR, Biacore T200; target immobilized on CM5, His6-tagged Y variant injected; 1:1 Langmuir
T1 construct: Natural C4 is a three-chain protein (alpha, beta, gamma) made from one precursor; Biotinylated for ELISA, amine-coupled to the chip for SPR; also called b-C4
T1 sequence (P0C0L4 20-675 limits assumed, chain 1 of 3): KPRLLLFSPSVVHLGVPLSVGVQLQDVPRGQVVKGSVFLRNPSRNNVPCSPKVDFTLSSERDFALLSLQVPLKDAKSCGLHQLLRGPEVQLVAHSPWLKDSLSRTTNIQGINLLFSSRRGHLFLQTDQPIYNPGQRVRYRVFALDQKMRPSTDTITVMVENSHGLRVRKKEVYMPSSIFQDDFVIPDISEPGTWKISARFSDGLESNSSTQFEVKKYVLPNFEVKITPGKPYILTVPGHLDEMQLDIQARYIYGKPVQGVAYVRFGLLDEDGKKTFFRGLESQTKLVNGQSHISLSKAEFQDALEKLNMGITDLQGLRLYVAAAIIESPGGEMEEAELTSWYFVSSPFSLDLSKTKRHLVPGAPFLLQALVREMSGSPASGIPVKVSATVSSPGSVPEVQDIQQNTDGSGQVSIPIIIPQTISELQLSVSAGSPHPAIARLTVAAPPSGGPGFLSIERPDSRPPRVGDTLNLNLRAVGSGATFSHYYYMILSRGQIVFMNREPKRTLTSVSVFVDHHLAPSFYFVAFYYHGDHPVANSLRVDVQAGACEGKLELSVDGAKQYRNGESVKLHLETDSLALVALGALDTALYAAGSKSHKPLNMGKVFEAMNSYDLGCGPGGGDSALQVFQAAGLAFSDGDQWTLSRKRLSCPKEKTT
T1 sequence (P0C0L4 680-1446 limits assumed, chain 2 of 3): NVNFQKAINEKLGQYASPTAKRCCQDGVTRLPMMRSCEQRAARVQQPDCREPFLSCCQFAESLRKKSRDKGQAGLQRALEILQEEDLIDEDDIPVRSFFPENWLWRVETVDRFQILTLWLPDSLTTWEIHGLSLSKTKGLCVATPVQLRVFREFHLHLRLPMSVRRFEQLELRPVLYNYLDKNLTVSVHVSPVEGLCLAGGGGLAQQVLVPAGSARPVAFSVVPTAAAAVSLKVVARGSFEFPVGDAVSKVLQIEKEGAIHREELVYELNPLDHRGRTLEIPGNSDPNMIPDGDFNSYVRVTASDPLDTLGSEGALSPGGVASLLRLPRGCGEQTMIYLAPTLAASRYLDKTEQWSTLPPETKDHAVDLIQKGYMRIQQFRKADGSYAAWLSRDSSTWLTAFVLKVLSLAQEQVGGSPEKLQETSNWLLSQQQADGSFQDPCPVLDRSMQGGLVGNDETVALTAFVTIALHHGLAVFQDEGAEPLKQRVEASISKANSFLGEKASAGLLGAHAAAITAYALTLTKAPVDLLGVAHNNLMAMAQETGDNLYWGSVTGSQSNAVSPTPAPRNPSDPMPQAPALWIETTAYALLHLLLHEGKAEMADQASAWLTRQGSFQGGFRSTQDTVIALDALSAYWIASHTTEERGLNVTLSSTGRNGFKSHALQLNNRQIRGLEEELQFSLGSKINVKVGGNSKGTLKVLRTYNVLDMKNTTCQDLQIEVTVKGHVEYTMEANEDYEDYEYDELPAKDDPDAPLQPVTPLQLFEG
T1 sequence (P0C0L4 1454-1744 limits assumed, chain 3 of 3): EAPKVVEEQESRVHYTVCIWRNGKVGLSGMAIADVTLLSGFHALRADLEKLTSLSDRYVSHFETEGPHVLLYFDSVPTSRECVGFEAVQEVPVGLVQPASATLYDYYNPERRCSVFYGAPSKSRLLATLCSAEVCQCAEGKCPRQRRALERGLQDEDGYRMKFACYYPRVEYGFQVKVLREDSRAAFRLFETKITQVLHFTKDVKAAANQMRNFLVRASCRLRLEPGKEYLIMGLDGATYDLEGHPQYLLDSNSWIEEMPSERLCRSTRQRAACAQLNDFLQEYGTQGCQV
observation.type: koff (s⁻¹)
Number in s⁻¹, nothing else.

>>> obs_value("Y02337 (designed binder, From library Ylib002Naive.I) MGSSHHHHHHGSSLAEAKEAAIAELDSKGVGAAEIKWIQHASTVEGVQGRKQQILAELPA")
0.81
>>> obs_value("Y00792 (designed binder, From library Ylib002Naive.I) MGSSHHHHHHGSSLAEAKEAAIAELDSKGVGADLIKKIQQASSVEGVQFWKQEILAQLPA")
0.0017
>>> obs_value("Y02309 (designed binder, From library Ylib002Naive.I) MGSSHHHHHHGSSLAEAKEAAIAELDSKGVGADLIKKIQKAESVEGVQFWKQEILATLPA")
0.0025
>>> obs_value("Y02330 (designed binder, From library Ylib002Naive.I) MGSSHHHHHHGSSLAEAKEAAIAELDSKGVGAELIKKIQHAESVEGVQFWKQEILAYLPA")
0.0046
>>> obs_value("Y02358 (designed binder, From library Ylib002Naive.I) MGSSHHHHHHGSSLAEAKEAAIAELDSKGVGADDIKLIQDAPSVEGVQEIKQFILAQLPA")
0.0014

Read the next record carefully.
Tell us which koff value is on record for Y02303 (designed binder, From library Ylib002Naive.I) MGSSHHHHHHGSSLAEAKEAAIAELDSKGVGAEEIKWIQNAWSVEGVQIMKQQILAELPA
0.21
